- methodDescription: Qualitative solubility screening
- Type: physicochemical
- measurementConditions: organic solvent or mixture, thermodynamic from solid, solvent Diethyl Carbonate; 50 mg in 4 mL; read-out: Solubility at Room Temp (RT)
endpointName: solubility

Entry Br.CC(NC(C)(C)C)C(=O)c1cccc(Cl)c1 (stereo not shown) [Bupropion hydrobromide] , solubility reported as < 12.5 mg/mL

---

- methodDescription: Qualitative solubility screening
- Type: physicochemical
- measurementConditions: organic solvent or mixture, thermodynamic from solid, solvent Benzyl Alcohol; 50 mg in 4 mL; read-out: Solubility at Room Temp (RT)
endpointName: solubility

So, Br.CC(NC(C)(C)C)C(=O)c1cccc(Cl)c1 (stereo not shown) [Bupropion hydrobromide] ? Its solubility was > 12.5 mg/mL
